Biological target: Kv12.1(H462Y) (Homo sapiens, UniProt Q96L42, H462Y)
Sequence (Q96L42 1-1107 H462Y): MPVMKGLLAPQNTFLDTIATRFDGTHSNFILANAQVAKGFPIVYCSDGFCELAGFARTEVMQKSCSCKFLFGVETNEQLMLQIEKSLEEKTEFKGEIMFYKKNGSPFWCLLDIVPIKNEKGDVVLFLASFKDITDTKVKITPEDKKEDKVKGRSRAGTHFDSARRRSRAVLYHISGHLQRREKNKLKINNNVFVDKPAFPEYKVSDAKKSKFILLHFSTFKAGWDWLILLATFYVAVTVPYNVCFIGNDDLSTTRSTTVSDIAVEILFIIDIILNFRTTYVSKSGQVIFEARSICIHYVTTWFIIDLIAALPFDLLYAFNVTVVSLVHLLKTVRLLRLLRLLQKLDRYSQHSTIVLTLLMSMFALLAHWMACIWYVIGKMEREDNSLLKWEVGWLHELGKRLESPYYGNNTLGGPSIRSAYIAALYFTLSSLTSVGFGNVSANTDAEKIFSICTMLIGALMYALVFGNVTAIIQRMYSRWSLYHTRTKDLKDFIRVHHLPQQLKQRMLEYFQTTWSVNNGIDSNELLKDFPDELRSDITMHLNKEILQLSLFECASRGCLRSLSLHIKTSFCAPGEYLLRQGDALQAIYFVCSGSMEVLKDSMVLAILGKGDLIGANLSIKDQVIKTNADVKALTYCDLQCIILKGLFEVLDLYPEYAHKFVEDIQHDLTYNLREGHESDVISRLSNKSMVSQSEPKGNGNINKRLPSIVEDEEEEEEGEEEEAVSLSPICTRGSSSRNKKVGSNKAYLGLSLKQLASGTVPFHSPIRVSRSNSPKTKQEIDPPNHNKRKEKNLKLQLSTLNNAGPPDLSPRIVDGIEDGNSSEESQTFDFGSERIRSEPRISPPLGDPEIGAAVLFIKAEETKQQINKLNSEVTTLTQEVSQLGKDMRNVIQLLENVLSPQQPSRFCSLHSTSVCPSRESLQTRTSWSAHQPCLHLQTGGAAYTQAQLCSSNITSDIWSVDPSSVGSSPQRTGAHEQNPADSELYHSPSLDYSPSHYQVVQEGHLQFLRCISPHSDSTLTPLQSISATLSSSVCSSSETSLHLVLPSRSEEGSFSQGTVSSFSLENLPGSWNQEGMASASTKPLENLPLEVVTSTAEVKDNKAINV
Assay: whole-cell patch clamp in transfected CHO cells
observable: pIC50
Notebook: values listed as pIC50 are -log10 of the concentration (mol/L).

The recorded pIC50 for entry C=C[C@H]1C[N@@]2CC[C@H]1C[C@H]2[C@H](O)c1ccnc2ccc(OC)cc12 [quinine] equals 4.25
